Where do these numbers come from? They come from ChEMBL document CHEMBL1201862.

- Test system: MCF7
- procedureText: NCI tumour cell line growth inhibition, 48 h
The source made the active and inactive calls. Cut-off read from the data, not from the text of the source: active = GI50 up to about 1.1 µM and inactive = higher.
In this exercise, the only acceptable responses are label 1 (active), label 0 (inactive)

# count of solved cases: 8
CC1CCCc2c(-c3ccc(Cl)cc3)nc(N)c(C#N)c21 (stereo not drawn)    label 0
CCN(CC)Cc1ccc2cccnc2c1O    label 0
O=C(/N=N/c1ccc([N+](=O)[O-])cc1)NNc1ccc([N+](=O)[O-])cc1    label 0
CC1S/C(=N\N=C2/C(=O)Nc3ccc(Br)cc32)N(C2CCCCC2)C1=O (stereo not drawn)    label 0
CC(=O)c1sc(=N)n(-c2c(C)cccc2C)c1C    label 0
O=C1NC(c2cccc3ccccc23)Nc2ccc(O)cc21 (stereo not drawn)    label 0
COc1ccccc1Cn1c2c(c3c(C(=O)NCCN(C)C)c(O)ccc31)C(=O)c1ccccc1C2=O    label 0
CCN(CC)CCn1nc(N)c2nc3ccccc3nc21    label 0

Task: Outcome logged for `O=[N+]([O-])c1cc(C2(N3CCCCC3)CCCCC2)sc1Br` in this assay:
Result: label 0

Task: Outcome logged for COC(=O)C1=C(C(=O)OC)C2OC1C1C2C2(C)C(C)=C(C)C1(C)[S+]2[O-] (stereo not drawn) in this assay:
Result: label 0

Task: Outcome logged for `O/N=C(\C=N\O)c1ccc2c(c1)Sc1ccccc1O2` in this assay:
Result: label 0

Task: Outcome logged for CN1c2ccc(Cl)cc2C(=O)NC1c1ccc([N+](=O)[O-])s1 (stereo not drawn) in this assay:
Result: label 0

Task: Outcome logged for `N#CC(C#N)=C1C(=Cc2ccc(OCCCCCCCCCCSSCCCCCCCCCCOc3ccc(C=C4C(=C(C#N)C#N)c5ccccc5C4=C(C#N)C#N)cc3)cc2)C(=C(C#N)C#N)c2ccccc21` in this assay:
Result: label 0

Task: Outcome logged for OC1(c2ccc(Cl)cc2)C(N2CCCC2)c2ccccc2C2=NCCN21 (stereo not drawn) in this assay:
Result: label 0

Task: Outcome logged for CC1C2CC(CC2(C)O)C1(C)C (stereo not drawn) in this assay:
Result: label 0

Task: Outcome logged for CC(=O)OCC(OC(C)=O)C(OC(C)=O)C(/C=N\Nc1nc2ccccc2c(=O)[nH]1)=N\Nc1nc2ccccc2c(=O)[nH]1 (stereo not drawn) in this assay:
Result: label 0

Task: Outcome logged for CCC[C@H](N[S+]([O-])c1ccc(C)cc1)C(C(=O)OCC)=C(c1ccccc1)c1ccccc1 (stereo partly drawn) in this assay:
Result: label 0

Task: Outcome logged for CC(=O)OC1COC(Nc2nc(NCc3ccccc3)n(C)c(=O)c2N=O)C(OC(C)=O)C1OC(C)=O (stereo not drawn) in this assay:
Result: label 0

Task: Outcome logged for COc1cccc(C2c3cc4c(cc3OC(NNc3ccccc3)C2C)OCO4)c1O (stereo not drawn) in this assay:
Result: label 0

Task: Outcome logged for COC(=O)c1ccc(C)cc1C1CN=NC12Cc1cc(C)ccc1C2=O (stereo not drawn) in this assay:
Result: label 0

Task: Outcome logged for COc1ccccc1/C=C1\CCC(CN(C)C)C1=O (stereo not drawn) in this assay:
Result: label 0

Task: Outcome logged for `Cn1c(=O)c2[nH]c(CCC(=O)O)nc2n(C)c1=O` in this assay:
Result: label 0

Task: Outcome logged for `Cc1cc(Br)cc(C)c1NC(=O)C(=O)Nn1c(S)nc2ccccc2c1=O` in this assay:
Result: label 0

###

- System: KM12
- procedureText: NCI tumour cell line growth inhibition, 48 h
Calls of active or inactive are those of the source. Rule as the data show it: active = GI50 up to about 1.1 µM and inactive = higher.
Reported GI50 by item:

CCCCCCCCCC(=O)CC(=O)c1ccc(O)cc1O    21.4 µM (inactive)
CCOC(=O)C1(C(=O)OCC)CCCN1C(=O)[C@H](CNC(=O)OC(C)(C)C)NC(=O)OCc1ccccc1    > 100 µM (inactive)
CC1=NN2C(=O)CC(=O)N=C2S1    > 100 µM (inactive)
CO[C@@]12CC(=O)/C(=C(O)\C=C\c3ccccc3)C(=O)[C@]1(OC)Cc1ccccc1O2    19.8 µM (inactive)
Cc1nc(C)c(N2CCN(Cc3ccccc3)CC2)c(O)n1    > 100 µM (inactive)
O=C(O)C(O)C(O)C(O)C(O)c1nc2ccccc2s1 (configuration not stated)    24.7 µM (inactive)

Task: Fill in GI50 for record `CCCn1c(C23CC4CC(CC(C4)C2)C3)nc2ccc(Cl)cc2c1=O`
Result: 31.9 µM (inactive)

Task: Fill in GI50 for record COC(=O)C1=C(C)N(NC(=O)c2cccc(Cl)c2)C(C)(O)C12CCOC2=O (configuration not stated)
Result: > 100 µM (inactive)

###

Reported GI50 by item:
- System: UACC-62
- procedureText: NCI tumour cell line growth inhibition, 48 h
Calls of active or inactive are those of the source. No stated cut-off is given here; in the data, active = GI50 up to about 1.1 µM and inactive = higher.

Task: Fill in GI50 for record `CN(C)[C@@H]1C(O)=C(C(=O)NCNCCCC(=O)O)C(=O)[C@@]2(O)C(O)=C3C(=O)c4c(O)cccc4[C@@](C)(O)[C@H]3C[C@@H]12`
Result: > 100 µM (inactive)

Task: Fill in GI50 for record `CCOc1ccc2nc3nc(O)nc(C)c3c(NC(C)(CO)CO)c2c1`
Result: > 100 µM (inactive)

Task: Fill in GI50 for record O=C1NC(c2cccc3ccccc23)Nc2ccc(O)cc21 (stereo not given)
Result: 21 µM (inactive)

Task: Fill in GI50 for record `C[C@H]1CCC/C=C/[C@@H]2C[C@H](OC(=O)CN(C)C)C[C@H]2[C@H](O)/C=C/C(=O)O1`
Result: 0.108 µM (active)

Task: Fill in GI50 for record `COc1ccc2c(c1)c1c3n2CCNN=C3CCC1`
Result: 60.4 µM (inactive)

###

Reported GI50 by item:
- Tested on: LOX IMVI
- procedureText: NCI tumour cell line growth inhibition, 48 h
Activity calls are given as the source filed them. Cut-off read from the data, not from the text of the source: active = GI50 up to about 1.1 µM and inactive = higher. Where a SMILES comes first, the peptide text is derived from it. [ ]: non-standard residue; d: D form. The star is where a group is joined. ξ: configuration not given here. NMeF = CN[C@@H](Cc1ccccc1)C(=O)O; NMeV = CN[C@H](C(=O)O)C(C)C; ξNMeN = CNC(CC(N)=O)C(=O)O; NMeA = CN[C@@H](C)C(=O)O; ξNMeV = CNC(C(=O)O)C(C)C; Boc = CC(C)(C)OC(=O)*

These recorded examples may help you get a feel for the data.
O=C(NNc1cn[nH]c(=O)n1)c1cccc2nc3ccccc3nc12    38.8 µM (inactive)
Cc1csc(=S)n1OC(=O)NC1CCCCC1    65.3 µM (inactive)
COC(=O)[C@H](C)N(C)C(=O)C(CC(N)=O)N(C)C(=O)[C@H](Cc1ccccc1)N(C)C(=O)[C@@H]1CCCN1C(=O)[C@H](C(C)C)N(C)C(=O)C(C(C)C)N(C)C(=O)[C@@H](NC(=O)OC(C)(C)C)C(C)C (some centres not stated) (Boc-V[ξNMeV][NMeV]P[NMeF][ξNMeN][NMeA]-OMe)    > 50 µM (inactive)

Task: Fill in GI50 for record COc1cc2cc(C(=O)N3CC(CCl)c4ccccc43)[nH]c2c(OC)c1OC (configuration not stated)
Result: 44.8 µM (inactive)

Task: Fill in GI50 for record `c1cc(CNCCN2CCNCC2)ccn1`
Result: > 100 µM (inactive)

Task: Fill in GI50 for record CC1CNC(c2ccc(-c3nc(-c4ccc(C5=NC(C)CN5)cc4)nc(N(C)C)n3)cc2)=N1 (configuration not stated)
Result: 1.41 µM (inactive)

Task: Fill in GI50 for record NC(=O)c1coc(C2OC(CO)C(O)C2O)n1 (configuration not stated)
Result: > 100 µM (inactive)

###

Reported GI50 by item:
- Test system: MOLT-4
- procedureText: NCI tumour cell line growth inhibition, 48 h
The source made the active and inactive calls. No stated cut-off is given here; in the data, active = GI50 up to about 1.1 µM and inactive = higher.

C[C@]12C=CC(=O)C=C1CC[C@@H]1[C@@H]2C(=O)C[C@@]2(C)[C@H]1CC[C@]2(O)C(=O)CO [PREDNISONE]    > 100 µM (inactive)
O=C(Nc1cc(Cl)c(Cl)cc1Cl)C(=O)C1C=CCS1(=O)=O (stereo not drawn)    > 100 µM (inactive)
O=C(NC1C2CC3CC(C2)CC1C3)c1cc(/C=C/c2ccccc2)nc(S)n1 (stereo not drawn)    > 100 µM (inactive)

Task: Fill in GI50 for record `CN(C)CCNC(=O)c1c(O)ccc2c1c1c(n2CCc2ccccc2)C(=O)c2ccccc2C1=O`
Result: 4.42 µM (inactive)

Task: Fill in GI50 for record `CC(C)(C)C1(COC(=O)c2ccc(N)cc2)COC1`
Result: 30.5 µM (inactive)

Task: Fill in GI50 for record `COc1ccc2c(c1)c1c3n2CCNN=C3CCC1`
Result: > 37.5 µM (inactive)

Task: Fill in GI50 for record CCC12C=CCN3CCC4(C(=C(C(=O)OC)C1)Nc1ccccc14)[C@H]32 (stereo partly drawn)
Result: 26.7 µM (inactive)

Task: Fill in GI50 for record CC(C)C(NC(=O)C(Cc1ccccc1)NC(=O)[C@H]1CCC[C@H]1NC(=O)C(N)Cc1ccc(O)cc1)C(N)=O (stereo partly drawn)
Result: > 100 µM (inactive)
